System: MCF7 breast
Test: NCI-60 one-dose screen, 48 h (100 = growth as untreated, 0 = no growth, -100 = all killed)
Conditions: 10 µM unless noted
Compounds without any hit were thinned out: in the full panel of roughly 83,000, 20% have a hit. Active and inactive are the calls of the source. The calls were made as follows: active = growth percent below 10; inactive = the rest.
reported.metric: growth

Query :: Return growth for the following molecule: CC(C)=CC(=O)N[C@H]1CC[C@]2(C)C3CC[C@]4(C)C(C(C)N(C)C)=CCC4C3CCC2[C@H]1O (some centres not stated)
Result :: 11.4% (inactive)

Query :: Write down growth measured for item CN1C(=O)/C(=C/c2ccc(C(=O)Nc3ncc(Cc4cccc(C(F)(F)F)c4)s3)cc2)SC1=S
Result :: 30.4% (inactive)

Query :: // fetch growth given entry CN(C)CCCn1c2c(c3cnccc3c1=O)C(=O)c1ccccc1-2
Result :: -3.97% (active)

Query :: Give a short answer stating reported growth for CNC(=O)c1cc(Oc2ccc3c(c2)sc2nc(-c4ccc(Cl)c(C(F)(F)F)c4)cn23)ccn1 .
Result :: 36.8% (inactive)

Query :: Give reported growth value for CCOC(=O)NCCCC(=O)NCCc1ccccc1
Result :: 97.8% (inactive)

Query :: Specify measured growth for N#Cc1ccc(/C=C/c2cn(-c3ccccc3)nc2-c2cccc([N+](=O)[O-])c2)cc1 .
Result :: 58.7% (inactive)

Kindly consider the entry below.
Query :: Answer with the recorded growth of COc1ccc(-c2cc(-c3cc(OC)ccc3OC)nc(SCC(C)=O)c2C#N)cc1 only.
Result :: 70.6% (inactive)

Each recorded value in this set is attributed to PubChem BioAssay (NCI).
